Each recorded value in this set is attributed to paper PMC8915600.

- protocol: in vitro
- testParameters: PAMPA, pH 7.4, log Pe

smilesString: CCC1(c2ccccc2)C(=O)NC(=O)NC1=O
Papp / ×10⁻⁶ cm/s: 0.891
//
smilesString: CCC1(CC)C(=O)NC(=O)NC1=O
Papp / ×10⁻⁶ cm/s: 1.78
//
smilesString: Nc1ccccc1
Papp / ×10⁻⁶ cm/s: 28.2

* * *

- protocol: skin-PAMPA permeability assay (gradient-pH, UPLC-DAD)
- testParameters: PAMPA, pH 7.4, log Pe, optimized assay conditions (4 h incubation, stirring); measured at the pH corresponding to the neutral form; acceptor pH 7.4

molecule: COC1=CC(=O)C[C@@H](C)[C@]12Oc1c(Cl)c(OC)cc(OC)c1C2=O
Papp at 4 h, 50 μM: 5.25 ×10⁻⁶ cm/s

molecule: NC(=O)Cc1ccc(O)cc1 [4-Hydroxyphenylacetamide]
Papp at 4 h, 50 μM: 0.851 ×10⁻⁶ cm/s

molecule: c1ccc2cnccc2c1
Papp at 4 h, 50 μM: 63.1 ×10⁻⁶ cm/s

molecule: Cc1ccc(C(C)C)c(O)c1
Papp at 4 h, 50 μM: 97.7 ×10⁻⁶ cm/s

molecule: CCc1ccc(O)cc1
Papp at 4 h, 50 μM: 64.6 ×10⁻⁶ cm/s
